experiment description: Antiproliferative activity against African green monkey COS7 cells assessed as inhibition of cell growth incubated for 24 hrs by MTT assay
Format: toxicity, cell-based, Chlorocebus aethiops, COS-7
condition notes: African green monkey (Chlorocebus aethiops), COS-7 cells
Reported IC50 at 24 h values for a set of molecules
Just the number please, in µM, no unit attached.

In the examples that follow, each entry is paired with its recorded IC50 at 24 h.
[
  {
    "smi": "O=C(CCCCCCCNC(=O)C(Cl)Cl)Nc1ccccc1[As]1SCCCS1",
    "readout unit": "µM",
    "result number": 4.8
  },
  {
    "smi": "O=C(CCCCNC(=O)C(Cl)Cl)Nc1ccc([As]2SCCCS2)cc1",
    "readout unit": "µM",
    "result number": 4.6
  },
  {
    "smi": "O=C(Nc1ccccc1[As]1SCCCS1)C(Cl)Cl",
    "readout unit": "µM",
    "result number": 1.87
  },
  {
    "smi": "O=C(CCCNC(=O)C(Cl)Cl)Nc1ccc([As]2SCCCS2)cc1",
    "readout unit": "µM",
    "result number": 6.12
  },
  {
    "smi": "O=C(CCNC(=O)C(Cl)Cl)Nc1ccccc1[As]1SCCCS1",
    "readout unit": "µM",
    "result number": 5.23
  },
  {
    "smi": "O=C(CCCCCCNC(=O)C(Cl)Cl)Nc1ccccc1[As]1SCCCS1",
    "readout unit": "µM",
    "result number": 8.07
  },
  {
    "smi": "O=C(CCCCNC(=O)C(Cl)Cl)Nc1ccccc1[As]1SCCCS1",
    "readout unit": "µM",
    "result number": 5.58
  },
  {
    "smi": "O=C(Nc1ccc([As]2SCCCS2)cc1)C(Cl)Cl",
    "readout unit": "µM",
    "result number": 3.74
  }
]

Ask | Query: IC50 at 24 h; subject: "O=C(CCCCCNC(=O)C(Cl)Cl)Nc1ccccc1[As]1SCCCS1"
Reply | 6.13

Ask | Recorded IC50 at 24 h for "O=C(CCCNC(=O)C(Cl)Cl)Nc1ccccc1[As]1SCCCS1" , please?
Reply | 6.06

Ask | Returns the measured IC50 at 24 h for the input molecule. Input: "O=C(CCCCCCCCCCCNC(=O)C(Cl)Cl)Nc1ccccc1[As]1SCCCS1"
Reply | 3

Ask | Param item = "O=C(CCCCCCCNC(=O)C(Cl)Cl)Nc1ccc([As]2SCCCS2)cc1" ; retrieve measured IC50 at 24 h.
Reply | 9.62

Ask | What value of IC50 at 24 h has been recorded for this entry: "O=C(CCNC(=O)C(Cl)Cl)Nc1ccc([As]2SCCCS2)cc1"
Reply | 6.27

---

EC50 overview
experiment description: Inhibition of PDK (unknown origin) incubated for 10 mins in presence of ATP
Set-up: species or system Homo sapiens
Dear colleague, please return just the value in µM, with no unit written.

Here are 3 compounds together with their reported answers.
[
  {
    "compound": "O=S(=O)(c1ccc(O)cc1O)N1Cc2cc(O)cc(O)c2C1",
    "readout unit": "µM",
    "EC50": 0.8
  },
  {
    "compound": "CN(C)C(=O)c1ccc(S(=O)(=O)c2ccc(NC(=O)[C@@](C)(O)C(F)(F)F)c(Cl)c2)cc1",
    "readout unit": "µM",
    "EC50": 0.087
  },
  {
    "compound": "COc1ccc(-c2c(-c3ccc(O)cc3O)n[nH]c2C)cc1",
    "readout unit": "µM",
    "EC50": 648
  }
]

Ask | Suppose we examine the compound O=C([O-])C(Cl)Cl.[Na+] [SODIUM DICHLOROACETATE] ; what EC50 value has been reported?
Reply | 180

Ask | Find the recorded EC50 belonging to "C[C@@H]1C[C@H]2O[C@@H]2/C=C\C=C\C(=O)Cc2c(Cl)c(O)cc(O)c2C(=O)O1" and report it.
Reply | 1100

---

experimental system: [Pyruvate dehydrogenase (acetyl-transferring)] kinase isozyme 1, mitochondrial (Homo sapiens)
Sequence (Q15118 whole entry): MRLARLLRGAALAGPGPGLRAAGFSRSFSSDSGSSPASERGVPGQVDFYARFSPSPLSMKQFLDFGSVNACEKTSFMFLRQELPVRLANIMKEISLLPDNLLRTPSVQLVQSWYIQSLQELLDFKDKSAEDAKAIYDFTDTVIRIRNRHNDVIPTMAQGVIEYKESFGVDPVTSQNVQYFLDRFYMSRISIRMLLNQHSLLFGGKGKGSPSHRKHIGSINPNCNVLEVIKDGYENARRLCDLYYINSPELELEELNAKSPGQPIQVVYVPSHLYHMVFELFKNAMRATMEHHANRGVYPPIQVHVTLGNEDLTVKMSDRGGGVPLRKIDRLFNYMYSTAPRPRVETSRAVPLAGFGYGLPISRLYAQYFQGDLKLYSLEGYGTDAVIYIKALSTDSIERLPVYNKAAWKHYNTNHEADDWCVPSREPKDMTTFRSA
experiment description: Inhibition of PDK1 (unknown origin) incubated for 30 mins in presence of ATP by kinase glo luminescent kinase assay
Examples of molecules with documented EC50 follow.

[
  {
    "smi": "O=C(CCCCCCCCCCCNC(=O)C(Cl)Cl)Nc1ccc([As]2SCCCS2)cc1",
    "measured parameter": "EC50",
    "result": "1300 nM"
  }
]

Ask | Name the reported EC50 value associated with the molecule "O=C(Nc1ccccc1[As]1SCCCS1)C(Cl)Cl"
Reply | 9600 nM

Ask | Form field: reported EC50 of "O=C(CCNC(=O)C(Cl)Cl)Nc1ccc([As]2SCCCS2)cc1"
Reply | 1900 nM

---

# IC50 per record follows
System: MOLM-13
experiment description: Antiproliferative activity against human MOLM-13 cells assessed as inhibition of cell growth incubated for 24 hrs by MTT assay
Assay type: functional, cell-based
condition notes: MOLM-13, 24 h
Give a bare numeral; the unit µM is implied.

As a guide, the following entries are already answered.
[
  {
    "smi": "O=C(CCCCCCNC(=O)C(Cl)Cl)Nc1ccc([As]2SCCCS2)cc1",
    "IC50 (µM)": 1.29
  },
  {
    "smi": "O=C(CCCCCCCNC(=O)C(Cl)Cl)Nc1ccc([As]2SCCCS2)cc1",
    "IC50 (µM)": 1.24
  },
  {
    "smi": "O=C(CCCCNC(=O)C(Cl)Cl)Nc1ccccc1[As]1SCCCS1",
    "IC50 (µM)": 1.77
  },
  {
    "smi": "O=C(CCCCCCCCCCCNC(=O)C(Cl)Cl)Nc1ccc([As]2SCCCS2)cc1",
    "IC50 (µM)": 0.8
  },
  {
    "smi": "O=C(O)C(Cl)Cl",
    "IC50 (µM)": 22000
  }
]

Ask | Find the recorded IC50 belonging to "O=C(Nc1ccccc1[As]1SCCCS1)C(Cl)Cl" and report it.
Reply | 0.48

Ask | What does the record list as IC50 for "O=C(CCCNC(=O)C(Cl)Cl)Nc1ccccc1[As]1SCCCS1" ?
Reply | 1.97

Ask | # input molecule: "O=C(CCNC(=O)C(Cl)Cl)Nc1ccc([As]2SCCCS2)cc1" ; wanted: its IC50
Reply | 1.34

Ask | Need IC50, item "O=C(CCCCCCCCCCCNC(=O)C(Cl)Cl)Nc1ccccc1[As]1SCCCS1"
Reply | 1.35

Ask | # get_value(readout='IC50', item= "O=C(CCCCNC(=O)C(Cl)Cl)Nc1ccc([As]2SCCCS2)cc1" )
Reply | 1.22

Ask | Fill in: IC50 of "O=C(CCNC(=O)C(Cl)Cl)Nc1ccccc1[As]1SCCCS1" is ___
Reply | 1.68

Ask | So what's the measured IC50 for this one? "O=C(Nc1ccc([As]2SCCCS2)cc1)C(Cl)Cl"
Reply | 0.91

Ask | What IC50 value was documented for this molecule, "O=C(CCCCCCCNC(=O)C(Cl)Cl)Nc1ccccc1[As]1SCCCS1" ?
Reply | 2.88

Ask | Reported IC50 for "O=C(CCCCCNC(=O)C(Cl)Cl)Nc1ccccc1[As]1SCCCS1" : what is it?
Reply | 1.61

---

experimental system: [Pyruvate dehydrogenase (acetyl-transferring)] kinase isozyme 1, mitochondrial (Homo sapiens)
experiment description: Inhibition of PDK1 (unknown origin) incubated for 30 mins in presence of ATP by kinase glo luminescent kinase assay
Listed here: items and their measured pEC50.
Scale explanation: pEC50 corresponds to minus log10 of a concentration expressed in moles per litre.

Here is how some compounds turned out for pEC50.
[
  {
    "smi": "O=C(CCCNC(=O)C(Cl)Cl)Nc1ccccc1[As]1SCCCS1",
    "result number": 5.54
  },
  {
    "smi": "O=C(CCCCCCNC(=O)C(Cl)Cl)Nc1ccc([As]2SCCCS2)cc1",
    "result number": 6.72
  },
  {
    "smi": "O=C(CCNC(=O)C(Cl)Cl)Nc1ccccc1[As]1SCCCS1",
    "result number": 5.59
  }
]

Ask | Record request: pEC50 value, item "O=C(CCCCNC(=O)C(Cl)Cl)Nc1ccc([As]2SCCCS2)cc1"
Reply | 6.03

Ask | Returns the measured pEC50 for the input compound. Input: "O=C(CCCCCCCNC(=O)C(Cl)Cl)Nc1ccccc1[As]1SCCCS1"
Reply | 5.72

Ask | Bench note: what pEC50 did "O=C(CCCNC(=O)C(Cl)Cl)Nc1ccc([As]2SCCCS2)cc1" show?
Reply | 6.00

---

experiment description: Antiproliferative activity against African green monkey COS7 cells assessed as inhibition of cell growth incubated for 24 hrs by MTT assay
Assay type: toxicity, cell-based, Chlorocebus aethiops, COS-7
condition notes: African green monkey (Chlorocebus aethiops), COS-7 cells
Reported IC50 at 24 h is given for each of the following compounds.
API: value field is a number in µM; no unit string.

Examples with answers:
[
  {
    "smi": "O=C(CCCCCNC(=O)C(Cl)Cl)Nc1ccc([As]2SCCCS2)cc1",
    "IC50 at 24 h, µM": 11.2
  },
  {
    "smi": "O=C(CCCCCCCCCCCNC(=O)C(Cl)Cl)Nc1ccc([As]2SCCCS2)cc1",
    "IC50 at 24 h, µM": 1.15
  }
]

Ask | # IC50 at 24 h lookup, item "O=C(CCCCCCNC(=O)C(Cl)Cl)Nc1ccc([As]2SCCCS2)cc1"
Reply | 9.66
